target: Snurportin-1 (Homo sapiens) + GTP-binding nuclear protein Ran (Homo sapiens) + Importin subunit beta-1 (Homo sapiens) (UniProt O95149+P62826+Q14974)
procedure summary: qHTS Assay for Inhibitors of RanGTP induced Rango (Ran-regulated importin-beta cargo) - Importin beta complex dissociation; also: nearly all actives have a fitted effect of over 45% in size
measurement context: Biochemical FRET Rango-importin beta; series mostly up to 46.1 µM
Hit rate of the full screen: of about 340,000 compounds, about 240 (0.071%) were called active. Inconclusive results (about 5%) are left out. Calls follow the shape of the full dose curve. The entries come from a sample that favours actives as a whole.
Choose the fitting class; nothing outside True for active, False for inactive is accepted.

Exercise: Give the logged outcome of this assay for the following molecule: COc1ccc(C2NCCCC2c2ccccc2)cc1 (centres undefined)
Solution: False

Exercise: What do you have for Cc1ccc(/C=C/C(=O)Nc2ccc([N+](=O)[O-])c(NC(=O)/C=C/c3ccc(C)o3)c2)o1 ?
Solution: False

Exercise: What do you have for Nc1ccc2[nH]c(=S)sc2c1 ?
Solution: False

Exercise: What do you have for CCOc1ccc(CCNC(=O)COC(=O)C2CCN(S(=O)(=O)c3ccccc3)CC2)cc1OCC ?
Solution: False

Exercise: What do you have for O=[N+]([O-])c1ccc(NS(=O)(=O)c2ccccc2)c(Cl)c1 ?
Solution: False

---
Exercise: Give the logged outcome of this assay for the following molecule: O=C(c1cccc(S(=O)(=O)N2CCCCCC2)c1)N1CCN(Cc2ccccc2)CC1
Solution: False

Exercise: What do you have for CCC1([N+](=O)[O-])COC(c2ccc(C(C)C)cc2)OC1 (centres undefined) ?
Solution: False

Exercise: What do you have for CN(C(=O)c1cccc(NC(=O)Cc2cccc(NC(=O)C3CCCN(C(=O)C4CC4)C3)c2)c1)C1CCC1 (centres undefined) ?
Solution: False

Exercise: What do you have for O=C(/C=C/c1ccc([N+](=O)[O-])o1)NNC(=O)c1ccc(F)cc1 ?
Solution: True

Exercise: What do you have for O=C(NCCc1ccccc1)c1c[nH]c2ccc(F)cc2c1=O ?
Solution: False

Exercise: What do you have for O=[N+]([O-])c1cccc(C=NN=Cc2ccccc2O)c1 ?
Solution: False

Exercise: What do you have for CCOC(=O)C1CCCN(C(=O)C2CCN(S(=O)(=O)c3ccc(Cl)c(C(F)(F)F)c3)CC2)C1 (centres undefined) ?
Solution: False

Exercise: What do you have for Cc1cc(OCCCC(=O)Nc2cc(S(=O)(=O)N3CCOCC3)ccc2N2CCOCC2)ccc1Cl ?
Solution: False

Exercise: What do you have for CC(C)OC(=O)c1ccc(NCc2cc(O)ccc2O)cc1Cl ?
Solution: False

Origin of measurements: PubChem BioAssay AID540253
